Molecular target: T1, CaBdf1 BD1 (GST-tagged, wild-type) (Candida albicans (strain SC5314 / ATCC …, UniProt Q5A4W8))
T1 chain: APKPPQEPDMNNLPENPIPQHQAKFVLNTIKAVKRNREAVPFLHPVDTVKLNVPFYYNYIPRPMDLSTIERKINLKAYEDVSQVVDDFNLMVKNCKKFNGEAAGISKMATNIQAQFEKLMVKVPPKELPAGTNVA
Assay: histone peptide array (Active Motif MODified), 1 uM GST-tagged bromodomain, anti-GST detection, normalized mean intensity
Square brackets hold non-standard residues; d marks the D form. Ends that are not written are not given here. Arg(Me2a) = CN(C)C(=N)NCCC[C@H](N)C(=O)O; pT = C[C@@H](OP(=O)(O)O)[C@H](N)C(=O)O; pS = N[C@@H](COP(=O)(O)O)C(=O)O; Me2a = not defined here
parameter: binding score
Give your answer as a number; write no unit.

Observe how each entry below is paired with its result.
PRKQLATKAARK(Me)[pS]APATGG    0.0029
[pS]GRGK(Ac)QGGK(Ac)ARAKAKSRSS [H2a 1-19]    0.0381
ARTKQTARKSTGGKAPRKQ (A R T K Q T A R Kme1 S T G G K A P R K Q)    0.00435
ARTK(Me)QTAR(me2s)K(me3)STGGKAPRKQ    0.00435
AR(Me2a)[pT]K(Me2)QTARKSTGGKAPRKQ (reading uncertain)    0.00181

Query: Let me know recorded binding score for ARTKQTARKSTGGKAPRKQ (A R T K Q T A R K S pT G G K A P R K Q) , thanks.
Reply: 0.00326

Query: Supply recorded binding score for RKSAPATGGVKKPHRYRPG (R K S A P A T G G V Kme3 K P H R Y R P G) [H3 26-45] here.
Reply: 0.00761

Query: Please report binding score for the following binder: AR(me2s)TK(Me)QTAR(me2s)K(me3)STGGKAPRKQ
Reply: 0.0029

Query: Find the measured binding score of PRKQLATKAA[Arg(Me2a)]KSAPATGG and report it.
Reply: 0.00326

Query: Return value of binding score for input ARTKQTARKSTGGKAPRKQ (A Rme2a T Kac Q T A Rme2a K S T G G K A P R K Q) , no commentary.
Reply: 0.00399

Query: Give the value of binding score reported for the following: ARTKQTARKSTGGKAPRKQ (A R T Kac Q T A Rme2s Kme1 S T G G K A P R K Q)
Reply: 0.00508

Query: Quickly give me recorded binding score for AR[pT]K(Ac)QTARKSTGGKAPRKQ
Reply: 0.00725

Query: Hello, please tell me recorded binding score for this one: ARTKQTARKSTGGKAPRKQ (A R T K Q T A Rme2s Kme2 S pT G G K A P R K Q)
Reply: 0.00906

Query: Supply binding score value. Item: ARTKQTARKSTGGKAPRKQ (A R T Kme3 Q T A Rme2a Kme1 S T G G K A P R K Q)
Reply: 0.00435
